# Species on record: Homo sapiens
# protocolDetails: Compound was tested for the inhibitory activity against human platelet aggregation by arachidonic acid (AA (0.1-1 mM)).
# Format: functional, organism-based
# settings: in the assay text read “AA (0.2-1 mM)” for “AA (0.1-1 mM)”
Reported IC50 values for a set of compounds
Express it in µM; write the number only.

compound=O=c1c(O)c(O)oc2ccc(Cl)cc12 metric=IC50 experimentalvalue=739

Value of measured IC50 for the entry O=C(O)C1Cc2cc(Cl)ccc2O1 (stereo not drawn) : 851
